Each entry below carries its recorded Abs 630 (25 nM).
Molecular target: T1, human IL-10 receptor (hIL-10R alpha and beta chains) on HEK-Blue IL-10 reporter cells (human, UniProt Q13651 22-578; Q08334 20-325)
T1 sequence 1: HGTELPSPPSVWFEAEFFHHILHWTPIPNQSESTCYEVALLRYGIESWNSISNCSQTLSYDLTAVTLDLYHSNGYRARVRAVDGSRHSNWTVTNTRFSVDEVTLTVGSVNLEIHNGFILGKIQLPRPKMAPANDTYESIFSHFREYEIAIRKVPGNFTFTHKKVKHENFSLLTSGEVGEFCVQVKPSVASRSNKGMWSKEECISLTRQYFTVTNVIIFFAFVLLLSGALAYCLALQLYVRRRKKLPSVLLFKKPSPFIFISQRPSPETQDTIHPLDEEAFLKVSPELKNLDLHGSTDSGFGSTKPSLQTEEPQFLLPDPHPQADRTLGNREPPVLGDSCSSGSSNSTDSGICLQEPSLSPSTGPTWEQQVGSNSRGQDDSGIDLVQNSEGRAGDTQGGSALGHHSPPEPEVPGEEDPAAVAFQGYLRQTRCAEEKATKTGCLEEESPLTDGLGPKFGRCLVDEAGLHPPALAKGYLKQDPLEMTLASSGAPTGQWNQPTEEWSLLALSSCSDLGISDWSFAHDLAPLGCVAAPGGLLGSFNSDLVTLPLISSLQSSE
T1 sequence 2: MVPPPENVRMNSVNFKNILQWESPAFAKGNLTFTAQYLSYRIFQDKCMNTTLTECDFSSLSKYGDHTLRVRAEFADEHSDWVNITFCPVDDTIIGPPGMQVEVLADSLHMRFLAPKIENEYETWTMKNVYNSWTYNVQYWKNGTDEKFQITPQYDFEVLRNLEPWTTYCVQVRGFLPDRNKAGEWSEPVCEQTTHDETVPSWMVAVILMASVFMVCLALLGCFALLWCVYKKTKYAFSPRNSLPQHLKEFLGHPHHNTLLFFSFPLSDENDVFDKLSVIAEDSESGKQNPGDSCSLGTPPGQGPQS
Assay: cell-based or functional assay
Answer with a number only, understood to be in Abs 630.

Reference set (4 entries):
IL10R binding molecule of SEQ ID NO: 273 (bispecific antibody) QVQLQESGGGSVQAGGSLRLSCAASGYTYSMYCMGWFRQAPGKEREGVAQINSDGSTSYADSVKGRFTISKDNAKNTLYLQMNSLKPEDTAMYYCAADSRVYGGSWYERLCGPYTYEYNYWGQGTQVTVSSGGGSQVQLQESGGGSVQAGGSLRLSCTVSRYTASVNYMGWFRQAPGKEREGVATIFTGAGTTYYANSVKGRFTISRDNAKNTAYLQMNSLKPEDTAIYYCAVDFRGGLLYRPAYEYTYRGQGTQVTVSSASHHHHHH; 0.52
IL10R binding molecule of SEQ ID NO: 300 (bispecific antibody) QVQLQESGGGSVQAGGSLRLSCAASGYSNCSYDMTWYRQAPGKEREFVSAIHSDGSTRYADSVKGRFFISQDNAKNTVYLQMNSLKPEDTAMYYCKTDPLHCRAHGGSWYSVRANYWGQGTQVTVSSGGGSQVQLQESGGGSVQAGGSLRLSCAASRYTYNSYCMGWFRQAPGKEREGVATIDSDGMTRYADSVKGRFTISKDNAKNTLYLQMNSLKPEDTAMYYCAADADCTIAAMTTNPLGQGTQVTVSSASHHHHHH; 2.08
IL10R binding molecule of SEQ ID NO: 313 (bispecific antibody) QVQLQESGGGSVQAGGSLRLSCAASGYTYSSYCMGWFRQAPGKEREGVAHIDSDGSTSYADSVKGRFTISKDNAKNTLYLQMNSLKPEDTAMYYCAADPIPGPGYCDGGPNKYWGQGTQVTVSSGGGSQVQLQESGGGSVQAGGSLRLSCAASRFTYSSYCMGWFRQAPGKEREGVASIDSDGSTSYTDSVKGRFTISKDNAKNTLYLQMNSLKPEDTAMYYCALDLMSTVVPGFCGFLLSAGMDYWGKGTQVTVSSASHHHHHH; 0.47
IL10R binding molecule of SEQ ID NO: 346 (bispecific antibody) QVQLQESGGGSVQAGGSLRLSCAASGYSYSSYCMGWFRQAPGKEREGVATIDSDGMTRYADSVKGRFTISKDNAKNTLYLQMNSLKPEDTAMYYCAAPLYDCDSGAVGRNPPYWGQGTQVTVSSGGGSQVQLQESGGGSVQAGGSLRLSCAASGYSNCSYDMTWYRQAPGKEREFVSAIHSDGSTRYADSVKGRFFISQDNAKNTVYLQMNSLKPEDTAMYYCKTDPLHCRAHGGSWYSVRANYWGQGTQVTVSSASHHHHHH; 0.43

Please examine the following record next.
Query: Endpoint output: Abs 630 (25 nM) of IL10R binding molecule of SEQ ID NO: 256 (bispecific antibody) QVQLQESGGGSVQAGGSLRLSCAASRYLYSIDYMAWFRQSPGKEREPVAVIYTASGATFYPDSVKGRFTISQDNAKMTVYLQMNSLKSEDTAMYYCAAVRKTDSYLFDAQSFTYWGQGTQVTVSSGGGSQVQLQESGGGSVQAGGSLRLSCAASGYTYSSGCMGWFRQAPGKEREAVAAINSDGSTSYADSVKGRFTISKDNAKNTLYLQMNSLKPEDTAMYYCAAEPYCSGGYPRWSVAEFGYWGQGTQVTVSSASHHHHHH . Value?
Response: 0.49
